// data source = patent US12559506B2

Biological target: LRRK2 (endogenous, HiBit tagged) (Homo sapiens, UniProt Q5S007)
Construct: endogenous in cells; host or cells: HEK293 cells with HiBit knock-in at the endogenous LRRK2 locus, stably expressing firefly luciferase
Sequence (Q5S007 whole entry): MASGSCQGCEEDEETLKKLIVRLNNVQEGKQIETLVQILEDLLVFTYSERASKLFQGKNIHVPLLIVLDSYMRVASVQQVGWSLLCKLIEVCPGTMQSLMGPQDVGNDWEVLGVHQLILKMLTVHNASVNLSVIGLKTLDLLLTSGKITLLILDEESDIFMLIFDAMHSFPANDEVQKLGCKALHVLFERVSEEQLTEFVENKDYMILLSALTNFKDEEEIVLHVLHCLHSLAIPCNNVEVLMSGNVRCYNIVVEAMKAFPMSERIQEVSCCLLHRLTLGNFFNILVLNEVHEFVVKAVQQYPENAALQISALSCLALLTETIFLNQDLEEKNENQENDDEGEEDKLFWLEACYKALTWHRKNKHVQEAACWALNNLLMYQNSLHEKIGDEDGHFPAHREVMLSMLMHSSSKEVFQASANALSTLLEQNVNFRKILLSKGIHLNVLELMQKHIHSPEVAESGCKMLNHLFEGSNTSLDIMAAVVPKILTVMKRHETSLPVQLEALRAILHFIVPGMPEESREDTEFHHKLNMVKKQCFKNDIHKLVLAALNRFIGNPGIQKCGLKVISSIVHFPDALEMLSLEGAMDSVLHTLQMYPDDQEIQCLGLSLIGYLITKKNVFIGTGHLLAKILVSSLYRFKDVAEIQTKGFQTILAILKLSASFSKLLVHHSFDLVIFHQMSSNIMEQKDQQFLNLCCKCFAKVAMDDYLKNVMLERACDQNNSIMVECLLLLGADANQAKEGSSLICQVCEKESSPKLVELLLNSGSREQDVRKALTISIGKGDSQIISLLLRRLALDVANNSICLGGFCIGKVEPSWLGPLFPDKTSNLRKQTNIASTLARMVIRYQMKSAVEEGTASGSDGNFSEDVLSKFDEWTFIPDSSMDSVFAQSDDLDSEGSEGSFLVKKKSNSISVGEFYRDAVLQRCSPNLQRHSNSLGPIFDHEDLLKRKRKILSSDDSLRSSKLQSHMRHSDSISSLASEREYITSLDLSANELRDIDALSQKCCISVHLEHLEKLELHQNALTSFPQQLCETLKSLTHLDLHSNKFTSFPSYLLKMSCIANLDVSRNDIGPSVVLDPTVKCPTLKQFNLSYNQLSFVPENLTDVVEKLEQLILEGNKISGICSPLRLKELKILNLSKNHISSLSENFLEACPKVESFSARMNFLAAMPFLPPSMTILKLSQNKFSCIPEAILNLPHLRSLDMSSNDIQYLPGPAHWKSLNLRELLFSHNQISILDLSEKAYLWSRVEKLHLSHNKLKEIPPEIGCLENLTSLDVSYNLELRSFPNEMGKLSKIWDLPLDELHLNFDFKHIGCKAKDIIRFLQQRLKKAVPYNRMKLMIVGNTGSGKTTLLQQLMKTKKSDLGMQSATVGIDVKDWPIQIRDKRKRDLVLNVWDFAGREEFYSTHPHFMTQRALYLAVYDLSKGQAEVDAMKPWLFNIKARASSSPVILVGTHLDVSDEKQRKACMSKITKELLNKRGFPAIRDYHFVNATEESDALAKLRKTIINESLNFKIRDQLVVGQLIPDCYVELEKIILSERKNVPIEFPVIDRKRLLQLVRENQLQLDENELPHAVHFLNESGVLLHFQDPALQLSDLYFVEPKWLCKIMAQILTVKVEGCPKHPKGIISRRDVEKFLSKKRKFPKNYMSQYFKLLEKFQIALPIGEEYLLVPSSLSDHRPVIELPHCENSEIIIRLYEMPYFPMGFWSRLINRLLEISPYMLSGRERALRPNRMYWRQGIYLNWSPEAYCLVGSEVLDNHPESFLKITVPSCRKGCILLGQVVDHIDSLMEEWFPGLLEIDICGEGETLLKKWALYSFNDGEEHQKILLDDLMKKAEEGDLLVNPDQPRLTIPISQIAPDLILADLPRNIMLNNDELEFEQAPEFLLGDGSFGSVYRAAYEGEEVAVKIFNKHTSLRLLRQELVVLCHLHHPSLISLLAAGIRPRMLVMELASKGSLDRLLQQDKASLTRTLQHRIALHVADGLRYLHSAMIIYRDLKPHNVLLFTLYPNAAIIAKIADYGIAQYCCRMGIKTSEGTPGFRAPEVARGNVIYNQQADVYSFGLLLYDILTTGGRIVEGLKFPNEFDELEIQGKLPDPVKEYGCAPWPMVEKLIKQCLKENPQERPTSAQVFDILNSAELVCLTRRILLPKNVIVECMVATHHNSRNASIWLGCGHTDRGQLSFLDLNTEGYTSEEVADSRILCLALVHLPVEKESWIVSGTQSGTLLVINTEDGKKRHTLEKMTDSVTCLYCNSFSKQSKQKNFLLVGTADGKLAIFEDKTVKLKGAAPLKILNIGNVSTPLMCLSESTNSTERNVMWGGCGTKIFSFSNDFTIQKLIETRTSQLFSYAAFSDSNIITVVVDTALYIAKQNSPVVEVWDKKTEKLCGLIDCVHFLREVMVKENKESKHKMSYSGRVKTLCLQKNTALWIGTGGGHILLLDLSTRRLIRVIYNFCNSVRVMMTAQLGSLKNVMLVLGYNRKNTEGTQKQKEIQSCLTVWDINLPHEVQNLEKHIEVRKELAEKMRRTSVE
Assay: Endogenous LRRK2 degradation assay, endogenous gene C-terminally HiBit-tagged in HEK293 cells (Nano-Glo Dual Luciferase)
Assay type: cell-based
Details: endogenous HiBit-tagged LRRK2 in HEK293 cells, 24 hours treatment; read-out: **Endogenous WT Dmax (%)
Below is a list of entries, each paired with its recorded Dmax value.

compound: CC1(Oc2ccc3n[nH]c(-c4cc(N5CCC(CN6CC(F)(CN7CCN(c8ccc9c(c8F)CN(C8CCC(=O)NC8=O)C9=O)CC7)C6)CC5)ncn4)c3c2)CC1 (stereo not drawn)
attribute measured: Dmax
result: ≥ 70%
//
compound: CC1(Oc2ccc3n[nH]c(-c4cc(N5CCN(C[C@H]6C[C@H](CN7CCN(c8ccc9c(c8F)CN(C8CCC(=O)NC8=O)C9=O)CC7)C6)CC5)ncn4)c3c2)CC1 (stereo partly drawn)
attribute measured: Dmax
result: 50 to 70%

Kindly review the next compound as well.
-- ask Can you share its Dmax? I mean this compound: C[C@@H]1CN(c2cc(-c3n[nH]c4ccc(OC5(C)CC5)cc34)ncn2)C[C@H](C)N1C[C@H]1CC[C@H](OC2CCN(c3ccc4c(c3F)CN(C3CCC(=O)NC3=O)C4=O)CC2)CC1 (stereo partly drawn)
-- reply 50 to 70%

====

Target: LRRK2 (endogenous, HiBit tagged) (Homo sapiens, UniProt Q5S007)
Construct: endogenous in cells; host or cells: HEK293 cells with HiBit knock-in at the endogenous LRRK2 locus, stably expressing firefly luciferase
Test: Endogenous LRRK2 degradation assay, endogenous gene C-terminally HiBit-tagged in HEK293 cells (Nano-Glo Dual Luciferase)
Type: cell-based
Settings: endogenous HiBit-tagged LRRK2 in HEK293 cells, 24 hours treatment; read-out: Endogenous WT Dmax
Procedure: Exemplary Assay for Testing LRRK2 Degradation Driven by Exemplary Hetero-Bifunctional Compounds Designed to Target LRRK2 The assay measures the degradation of LRRK2 in cells where the C-terminus (3′) of the endogenous gene has been tagged with a HiBit sequence in HEK293 cells. […] Day 3—HiBit Assay. […] Fluorescence of each plate was read on a plated reader for the Alamar Blue viability assay. […] The One Glo luciferase mixture was prepared. […] The luminescence of each plate was read on a plate reader. […]
Below is a list of entries, each paired with its recorded Dmax value.

These solved cases illustrate the format of a correct answer.
molecule: CC1(Oc2cc3c(-c4cc(N5CCC(O[C@H]6C[C@@H](OC7CCN(c8ccc9c(c8F)CN(C8CCC(=O)NC8=O)C9=O)CC7)C6)CC5)ncn4)n[nH]c3cn2)CC1 (some centres unmarked)
assay target: LRRK2 (endogenous, HiBit tagged) (Homo sapiens, UniProt Q5S007)
attribute measured: Dmax
result: 50 to 70%
--
molecule: Cc1cc(-c2n[nH]c3ccc(OC4(C)CC4)nc23)cc(N2CCC(O[C@H]3CC[C@H](CN4CCN(c5ccc6c(c5F)CN(C5CCC(=O)NC5=O)C6=O)CC4)CC3)CC2)n1 (some centres unmarked)
assay target: LRRK2 (endogenous, HiBit tagged) (Homo sapiens, UniProt Q5S007)
attribute measured: Dmax
result: 50 to 70%
--
molecule: CC1(Oc2ccc3[nH]nc(-c4cc(N5CCC(O[C@H]6CC[C@H](CN7CCN(c8ccc9c(c8Cl)CN(C8CCC(=O)NC8=O)C9=O)CC7)CC6)CC5)ncn4)c3c2)CC1 (some centres unmarked)
assay target: LRRK2 (endogenous, HiBit tagged) (Homo sapiens, UniProt Q5S007)
attribute measured: Dmax
result: 50 to 70%
--
molecule: Cc1cc(-c2n[nH]c3ccc(OC4(C)CC4)cc23)cc(N2CCN(C[C@H]3CC[C@H](OC4CCN(c5ccc6c(c5F)CN(C5CCC(=O)NC5=O)C6=O)CC4)CC3)CC2)n1 (some centres unmarked)
assay target: LRRK2 (endogenous, HiBit tagged) (Homo sapiens, UniProt Q5S007)
attribute measured: Dmax
result: 50 to 70%
--
molecule: CC1(Oc2ccc3[nH]nc(-c4ccnc(N5CCC(O[C@H]6CC[C@H](CN7CCN(c8ccc9c(c8F)CN(C8CCC(=O)NC8=O)C9=O)CC7)CC6)CC5)c4)c3n2)CC1 (some centres unmarked)
assay target: LRRK2 (endogenous, HiBit tagged) (Homo sapiens, UniProt Q5S007)
attribute measured: Dmax
result: 50 to 70%
--
molecule: CC1(Oc2cc3c(-c4cc(N5CCC(CN6CCN(CC7CCN(c8ccc9c(c8F)CN(C8CCC(=O)NC8=O)C9=O)CC7)CC6(C)C)CC5)ncn4)n[nH]c3cn2)CC1 (centres unmarked)
assay target: LRRK2 (endogenous, HiBit tagged) (Homo sapiens, UniProt Q5S007)
attribute measured: Dmax
result: 50 to 70%

-- ask Can you share its Dmax? I mean this molecule: CC1(Oc2ccc3n[nH]c(-c4cc(N5CCC(O[C@H]6CC[C@H](OC7CCN(c8ccc9c(c8F)CN(C8CCC(=O)NC8=O)C9=O)CC7)CC6)CC5)ncn4)c3c2)CC1 (some centres unmarked)
-- reply 50 to 70%

-- ask Can you share its Dmax? I mean this molecule: CC1(Oc2ccc3[nH]nc(-c4cc(N5CCN(C[C@H]6CC[C@H](OC7CCN(c8ccc9c(c8Cl)CN(C8CCC(=O)NC8=O)C9=O)CC7)CC6)CC5)ncn4)c3c2)CC1 (some centres unmarked)
-- reply 50 to 70%

-- ask Can you share its Dmax? I mean this molecule: CC1(Oc2ccc3[nH]nc(-c4cc(N5CCC(O[C@H]6CC[C@H](CN7CCN(c8ccc9c(c8F)CN(C8CCC(=O)NC8=O)C9=O)C(C)(C)C7)CC6)CC5)ncn4)c3c2)CC1 (some centres unmarked)
-- reply 50 to 70%

-- ask Can you share its Dmax? I mean this molecule: CC1(Oc2cc3c(-c4cc(N5CCC(O[C@H]6CC[C@H](CN7CCN(c8ccc9c(c8F)CN(C8CCC(=O)NC8=O)C9=O)CC7)CC6)CC5)ncn4)n[nH]c3cn2)CC1 (some centres unmarked)
-- reply 50 to 70%

-- ask Can you share its Dmax? I mean this molecule: CC1(Oc2ccc3[nH]nc(-c4cc(N5CCC(CN6C[C@@H]7C[C@H]6CN7CC6CCN(c7ccc8c(c7F)CN(C7CCC(=O)NC7=O)C8=O)CC6)CC5)ncn4)c3c2)CC1 (some centres unmarked)
-- reply 50 to 70%

-- ask Can you share its Dmax? I mean this molecule: COc1c(N2CCC(CN3CCN(CC4CCN(c5cc(-c6n[nH]c7ccc(OC8(C)CC8)cc67)ncn5)CC4)[C@@H](C)C3)CC2)ccc2c1CN(C1CCC(=O)NC1=O)C2=O (some centres unmarked)
-- reply 50 to 70%

-- ask Can you share its Dmax? I mean this molecule: CC1(Oc2ccc3[nH]nc(-c4cc(N5CCN(C[C@H]6CC[C@H](OC7CCN(c8ccc9c(c8F)CN(C8CCC(=O)NC8=O)C9=O)CC7)CC6)CC5(C)C)ncn4)c3c2)CC1 (some centres unmarked)
-- reply < 50%

-- ask Can you share its Dmax? I mean this molecule: COc1c(N2CCC(O[C@H]3CC[C@H](OC4CCN(c5cc(-c6n[nH]c7ccc(OC8(C)CC8)cc67)ncn5)CC4)CC3)CC2)ccc2c1CN(C1CCC(=O)NC1=O)C2=O (some centres unmarked)
-- reply 50 to 70%

-- ask Can you share its Dmax? I mean this molecule: COc1c(N2CC3(CCN(CCOC4CCN(c5cc(-c6n[nH]c7ccc(OC8(C)CC8)cc67)ncn5)CC4)CC3(F)F)C2)ccc2c1CN(C1CCC(=O)NC1=O)C2=O (centres unmarked)
-- reply 50 to 70%

-- ask Can you share its Dmax? I mean this molecule: COc1c(N2CC3(CCN(CCN4CCN(c5cc(-c6n[nH]c7ccc(OC8(C)CC8)cc67)ncn5)CC4)CC3(F)F)C2)ccc2c1CN(C1CCC(=O)NC1=O)C2=O (centres unmarked)
-- reply 50 to 70%

-- ask Can you share its Dmax? I mean this molecule: COc1c(N2CCC(CN3CCN(CC4CCN(c5cc(-c6n[nH]c7cc(F)c(OC8(C)CC8)cc67)ncn5)CC4)C(C)(C)C3)CC2)ccc2c1CN(C1CCC(=O)NC1=O)C2=O (centres unmarked)
-- reply 50 to 70%

====

Target: wildtype LRRK2 (Homo sapiens, UniProt Q5S007)
Construct: expressed in transfected cells; host or cells: HEK293 (ATCC CRL-1573), transient transfection, mammalian expression vector with ubiquitin promoter
Experiment: LRRK2 degradation assay, HiBit-tagged wildtype LRRK2 expressed from plasmid in HEK293 cells (Nano-Glo Dual-Luciferase)
Type: cell-based
Settings: HiBit-tagged wildtype LRRK2, HEK293 cells, 24 hours; read-out: *WT DC50
attribute measured: DC50

These solved cases illustrate the format of a correct answer.
molecule: C[C@H]1CN(c2cc(-c3n[nH]c4ccc(OC5(C)CC5)cc34)ncn2)CCN1CC1CCN(CCC2CCN(c3ccc4c(c3)C(=O)N(C3CCC(=O)NC3=O)C4=O)CC2)CC1 (some centres unmarked)
DC50: < 10 nM
--
molecule: CC1(Oc2ccc3n[nH]c(-c4cc(N5CCN(CC6CC7(CCN(CC8CCN(c9ccc%10c(c9)C(=O)N(C9CCC(=O)NC9=O)C%10=O)CC8)CC7)C6)CC5)ncn4)c3c2)CC1 (centres unmarked)
DC50: 10 to 50 nM
--
molecule: CC1(Oc2ccc3n[nH]c(-c4cc(N5CCN(Cc6ccc(CN7CCN(c8ccc9c(c8)C(=O)N(C8CCC(=O)NC8=O)C9=O)CC7)nn6)CC5)ncn4)c3c2)CC1 (centres unmarked)
DC50: < 10 nM
--
molecule: C[C@H]1CN(c2cc(-c3[nH]nc4ccc(OC5(C)CC5)cc34)ncn2)CCN1Cc1cn(CC2CCN(c3ccc4c(c3)C(=O)N(C3CCC(=O)NC3=O)C4=O)CC2)nn1 (some centres unmarked)
DC50: < 10 nM
--
molecule: CC1(Oc2ccc3[nH]nc(-c4cc(N5CCO[C@@H](CCN6CCN(CC7CCN(c8ccc9c(c8)C(=O)N(C8CCC(=O)NC8=O)C9=O)CC7)CC6)C5)ncn4)c3c2)CC1 (single isomer, unassigned)
DC50: < 10 nM

-- ask Can you share its DC50? I mean this molecule: CC1(Oc2ccc3n[nH]c(-c4cc(N5CCN(Cc6ccc(CN7CCN(c8ccc9c(c8)C(=O)N(C8CCC(=O)NC8=O)C9=O)CC7)cc6)CC5)ncn4)c3c2)CC1 (centres unmarked)
-- reply < 10 nM

-- ask Can you share its DC50? I mean this molecule: CC1(Oc2ccc3[nH]nc(-c4cc(N5CCC(CN6CC7(CN(CC8CCN(c9ccc%10c(c9)C(=O)N(C9CCC(=O)NC9=O)C%10=O)CC8)C7)C6)CC5)ncn4)c3c2)CC1 (centres unmarked)
-- reply < 10 nM

-- ask Can you share its DC50? I mean this molecule: CC1(Oc2ccc3[nH]nc(-c4cc(N5CC[C@@H](CN6CCN(CC7CCN(c8ccc9c(c8)C(=O)N(C8CCC(=O)NC8=O)C9=O)CC7)CC6)C5)ncn4)c3c2)CC1 (some centres unmarked)
-- reply < 10 nM

-- ask Can you share its DC50? I mean this molecule: CC1(Oc2ccc3[nH]nc(-c4cc(N5CC(CC6CCN(CC7CCN(c8ccc9c(c8)C(=O)N(C8CCC(=O)NC8=O)C9=O)CC7)CC6)C5)ncn4)c3c2)CC1 (centres unmarked)
-- reply < 10 nM

-- ask Can you share its DC50? I mean this molecule: CC1(Oc2ccc3[nH]nc(-c4cc(N5CCO[C@H](CCN6CCN(CC7CCN(c8ccc9c(c8)C(=O)N(C8CCC(=O)NC8=O)C9=O)CC7)CC6)C5)ncn4)c3c2)CC1 (some centres unmarked)
-- reply < 10 nM

-- ask Can you share its DC50? I mean this molecule: CC1(Oc2ccc3[nH]nc(-c4cc(N5CCC(CN6CC7(CCN7CC7CCN(c8ccc9c(c8)C(=O)N(C8CCC(=O)NC8=O)C9=O)CC7)C6)CC5)ncn4)c3c2)CC1 (centres unmarked)
-- reply < 10 nM

-- ask Can you share its DC50? I mean this molecule: CC1(Oc2ccc3[nH]nc(-c4ccnc(N5CC(CC6CCN(CC7CCN(c8ccc9c(c8)C(=O)N(C8CCC(=O)NC8=O)C9=O)CC7)CC6)C5)c4)c3c2)CC1 (centres unmarked)
-- reply < 10 nM
